The reader will find reported concentration at 0.083 h values listed item by item below.
# Assay Details: In vivo PK, IV dose, plasma
# Design: species or system Rat (SD)
# Settings: SD, rat, plasma, iv, 1 mg/kg, Rat (SD), 0.083 hr, terminal, read-out: Plasma concentration, mean

- Compound: "CCCCCNC(=O)Nc1ccc2nc(-c3cccs3)c(-c3cccs3)nc2c1"
  Endpoint Unit: "ng/mL"
  concentration at 0.083 h: 1910
- Compound: "COCCNC(=O)Nc1ccc2nc(-c3cccs3)c(-c3cccs3)nc2c1 [ADG-205c]"
  Endpoint Unit: "ng/mL"
  concentration at 0.083 h: 1630
- Compound: "O=C(Nc1ccc2nc(-c3cccs3)c(-c3cccs3)nc2c1)NC12CC3CC(CC(C3)C1)C2"
  Endpoint Unit: "ng/mL"
  concentration at 0.083 h: 1660
- Compound: "CNC(=O)Nc1ccc2nc(-c3cccs3)c(-c3cccs3)nc2c1"
  Endpoint Unit: "ng/mL"
  concentration at 0.083 h: 1090

* * *

# Assay Details: In vivo PK, oral gavage, plasma
# Set-up: species or system Rat (SD)
# Settings: SD, rat, plasma, po, 5 mg/kg, Rat, 24.0 hr, BQL limit 1.00 ng/mL, read-out: Plasma concentration, individual animal

- Molecule Smiles: "O=C(Nc1ccc2nc(-c3cccs3)c(-c3cccs3)nc2c1)NC12CC3CC(CC(C3)C1)C2"
  concentration at 24 h: "1.18 ng/mL"

* * *

The reader will find reported concentration at 4 h values listed item by item below.
# Assay Details: In vivo PK, oral gavage, plasma
# Parameters: species or system Rat (SD)
# Settings: SD, rat, plasma, po, 5 mg/kg, Rat (SD), 4 hr, BQL = below quantitation limit (1.00 ng/mL)
Quantity Measured: concentration at 4 h

- Compound: "CNC(=O)Nc1ccc2nc(-c3cccs3)c(-c3cccs3)nc2c1"
  Obs Value: "12.8 ng/mL"
- Compound: "COCCNC(=O)Nc1ccc2nc(-c3cccs3)c(-c3cccs3)nc2c1 [ADG-205c]"
  Obs Value: "693 ng/mL"

* * *

# Assay Details: In vivo PK, oral gavage, plasma
# Parameters: species or system Rat (SD)
# Settings: SD, rat, plasma, po, 5 mg/kg, Rat (SD), 0.25 hr, BQL = below quantitation limit (1.00 ng/mL), read-out: Plasma concentration, mean

- Compound: "CNC(=O)Nc1ccc2nc(-c3cccs3)c(-c3cccs3)nc2c1"
  concentration at 0.25 h [ng/mL]: 1.47
- Compound: "COCCNC(=O)Nc1ccc2nc(-c3cccs3)c(-c3cccs3)nc2c1 [ADG-205c]"
  concentration at 0.25 h [ng/mL]: 83.5

* * *

The reader will find reported concentration at 1 h values listed item by item below.
# Assay Details: In vivo PK, IV dose, plasma
# Parameters: species or system Rat (SD)
# Settings: SD, rat, plasma, iv, 1 mg/kg, Rat (SD), 1 hr, terminal, read-out: Plasma concentration, mean

- Compound: "CCCCCNC(=O)Nc1ccc2nc(-c3cccs3)c(-c3cccs3)nc2c1"
  concentration at 1 h: "220 ng/mL"
- Compound: "CNC(=O)Nc1ccc2nc(-c3cccs3)c(-c3cccs3)nc2c1"
  concentration at 1 h: "165 ng/mL"
- Compound: "COCCNC(=O)Nc1ccc2nc(-c3cccs3)c(-c3cccs3)nc2c1 [ADG-205c]"
  concentration at 1 h: "1040 ng/mL"
- Compound: "O=C(Nc1ccc2nc(-c3cccs3)c(-c3cccs3)nc2c1)NC12CC3CC(CC(C3)C1)C2"
  concentration at 1 h: "54.5 ng/mL"
